These data points were gathered from PubChem BioAssay AID1259336.

For each record, write down the corresponding log2 fold change growth.
test: anthelmintic activity against nematode growth – whole organism, log2 fold change (AID 1259336);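 note: growth scored by imaging after five days at 20 °C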; conditions: C. elegans growth, anthelmintic screen; hits give low values
Answer with the value's number alone.

Q. Return log2 fold change growth for the following molecule: "Cc1cccnc1NC(=O)c1cccc(OCc2c(C)noc2C)c1"
A. 0.0511

Q. Return log2 fold change growth for the following molecule: "O=C([C@@H](c1ccc(Cl)cc1)c1cccnc1)N1CCN(c2ccc(C(F)(F)F)cc2)CC1"
A. -0.994

Q. Return log2 fold change growth for the following molecule: "O=C(C1CCN(c2cc(-n3cccc3)ncn2)CC1)N1CCc2ccccc2C1"
A. -0.11

Q. Return log2 fold change growth for the following molecule: "CCCCc1ccc(NC(=O)Nc2ccc(O[C@H]3CCCC[C@@H]3N(C)c3ccccc3)c(F)c2)cc1"
A. -0.0752

Q. Return log2 fold change growth for the following molecule: "c1ccc(Oc2ccc(-c3cc(CN4CCOCC4)[nH]n3)cc2)cc1"
A. 0.284

Q. Return log2 fold change growth for the following molecule: "O=C(Nc1c(O)cccc1-c1nc2c(C(=O)O)cccc2o1)c1cc(-c2ccccc2)on1"
A. -0.772

Q. Return log2 fold change growth for the following molecule: "NCC(=O)N1CCn2c(nc(-c3ccccc3)c2Nc2ccc3c(c2)OCO3)C1"
A. 0.0553

Q. Return log2 fold change growth for the following molecule: "Cc1nc(-c2ccccn2)nc(NCCc2ccc(S(C)(=O)=O)cc2)c1Cl"
A. -0.702

Q. Return log2 fold change growth for the following molecule: "Cc1cc2ccccc2n1CC(=O)N1C[C@@H](C(=O)N2CCCCC2)Oc2ccccc21"
A. 0.0798

Q. Return log2 fold change growth for the following molecule: "N#Cc1ccc(-c2cnc(N)c(-c3ccc(C(N)=O)cc3)n2)cc1"
A. -0.619

----------
For each record, write down the corresponding log2 fold change growth.
test: anthelmintic activity against nematode growth – whole organism, log2 fold change (AID 1259336);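 note: growth scored by imaging after five days at 20 °C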; settings: C. elegans growth, anthelmintic screen; hits give low values
Answer with the value's number alone.

Q. Return log2 fold change growth for the following compound: "CCN(CC)S(=O)(=O)c1ccc(Cl)c(C(=O)Nc2ccc3nc(C)sc3c2)c1"
A. -1.22

Q. Return log2 fold change growth for the following compound: "CCc1nc2ccc(C(=O)NCc3ccc4c(c3)OCO4)cn2c1N(C)Cc1cccs1"
A. -0.917

Q. Return log2 fold change growth for the following compound: "CN(C)c1cc(NC(=O)Nc2ccccc2)c2ccccc2n1"
A. 0.272

Q. Return log2 fold change growth for the following compound: "CCOc1ccc(OCC(=O)Nc2cc(C)cc(C)c2)cc1"
A. -0.0899

Q. Return log2 fold change growth for the following compound: "FC(F)(F)c1ccc(N(c2cccnc2)C2CCN(c3ccc(C(F)(F)F)cn3)CC2)cc1"
A. -0.44

Q. Return log2 fold change growth for the following compound: "CNC(=O)c1cc(S(=O)(=O)N2CCN(c3ccccn3)CC2)cs1"
A. -0.156

Q. Return log2 fold change growth for the following compound: "Cc1nnc(NC(=O)c2cn(-c3ccccc3)nc2-c2ccccc2C)o1"
A. -0.302

Q. Return log2 fold change growth for the following compound: "Cc1cc(Nc2ccncc2)n2nc(C)c(-c3ccccc3Cl)c2n1"
A. -0.496

Q. Return log2 fold change growth for the following compound: "Cc1cc(C(=O)Nc2cnn(Cc3ccc(Cl)cc3Cl)c2)no1"
A. 0.545

Q. Return log2 fold change growth for the following compound: "O=C(NC1=NCCS1)c1sc2cc(F)ccc2c1Cl"
A. -0.159

Q. Return log2 fold change growth for the following compound: "CCOc1ccccc1N[C@@H](C)C(=O)Nc1cc(C(F)(F)F)ccc1N1CCOCC1"
A. -1.5
